B1: MLL5 (parent)
chain: EQIAERKRKMVSWEASSLGLVTAA

variants of: B1; assay: protein stability index of a GFP-peptide fusion (GPS, HEK-293T) (PSI 1-6); higher = more stable; conditions: c terminus: a fixed tail appended;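 further: lentivirally expressed fusions sorted by FACS into six bins by GFP to DsRed ratio, PSI derived from sequencing read proportions per bin multiplied by bin number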
So basically: protein stability index at 3 or higher? That is 1 (yes). Lower than 3? That is 0 (no).

Field: example entries. Status: answers known.
> print(dat)
                          sequence    label
1   EQIAEIKRKMVSWEASSLGLVTAA [R6I]   0 (no)
2  EQIAERKRKMVSWEASSPGLVTAA [L18P]  1 (yes)
3  EQIAERKRKMVSWEATSLGLVTAA [S16T]   0 (no)
4  EQIAERKRKMVSWEASSLGLVTAC [A24C]   0 (no)
5   EQHAERKRKMVSWEASSLGLVTAA [I3H]  1 (yes)

Q: Check if protein stability index >= 3 (inclusive). Item: EQIAERKRKMVSWEASSLGLSTAA [V21S]
A: 1 (yes)

Q: Cool, now EQIAERKRKMTSWEASSLGLVTAA [V11T]
A: 0 (no)

Q: Subsequent entry: EQIAERKRKMVSWEASSLGLVTAK [A24K]
A: 0 (no)

Q: Now try EQIAWRKRKMVSWEASSLGLVTAA [E5W] .
A: 0 (no)

Q: Try this variant too: EQGAERKRKMVSWEASSLGLVTAA [I3G]
A: 1 (yes)

Q: Moving on to EQIAERKRKMVSWEASSLGLVTFA [A23F]
A: 0 (no)

Q: One more variant: EQIAERKRKMVSWEASSLRLVTAA [G19R]
A: 1 (yes)

Measured values drawn from the supplement of paper PMC10567573 for this set.
